Biological target: Histone deacetylase 3 (Homo sapiens)
Sequence (O15379 whole entry): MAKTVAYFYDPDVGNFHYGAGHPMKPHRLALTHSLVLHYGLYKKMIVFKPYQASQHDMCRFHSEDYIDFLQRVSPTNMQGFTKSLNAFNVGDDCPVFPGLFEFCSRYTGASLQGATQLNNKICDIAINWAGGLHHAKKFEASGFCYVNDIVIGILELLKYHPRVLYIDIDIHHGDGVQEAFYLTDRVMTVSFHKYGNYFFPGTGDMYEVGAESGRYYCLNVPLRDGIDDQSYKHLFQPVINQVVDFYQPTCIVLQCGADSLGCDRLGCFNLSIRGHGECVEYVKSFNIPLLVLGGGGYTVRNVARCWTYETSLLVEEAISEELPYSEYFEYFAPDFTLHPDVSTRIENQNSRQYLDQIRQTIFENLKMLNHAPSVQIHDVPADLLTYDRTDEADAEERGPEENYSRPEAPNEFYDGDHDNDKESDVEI
Experiment: Inhibition of human recombinant His6-tagged and GST-fuses HDAC3 expressed in insect High5 cells using Ac-Lys-Tyr-Lys(e-acetyl)-AMC as substrate after 24 hrs by fluorescence assay
measuredEndpoint: log10 of IC50 (log10 of the value in µM)
Remember, log10 of IC50, in µM.

Reported log10 of IC50, compound CC(c1ccc(NC(=O)c2ccc(-c3ccccc3)s2)nc1)N1CCc2nc(C(=O)NO)sc2C1 (centres undefined) : ____
0.29

Next: CC(c1ccc(NC(=O)/C=C/c2ccccc2)nc1)N1CCc2nc(C(=O)NO)sc2C1 (centres undefined)
0.68

Next: `COc1ccc(/C=C/C(=O)NCCCCN2CCc3nc(C(=O)NO)sc3C2)cc1`
1.53

Next: `COc1ccc(/C=C/C(=O)Nc2ccc(C(=O)N3CCc4nc(C(=O)NO)sc4C3)cc2)cc1`
1.21

Next: `O=C(Nc1ccc(C(=O)N2CCc3nc(C(=O)NO)sc3C2)cc1)c1ccc(-c2ccccc2)s1`
0.42

Next: `C=CCCC(=O)Nc1ccc(C(=O)N2CCc3nc(C(=O)NO)sc3C2)cc1`
0.97

Next: C=CCCC(=O)Nc1ccc(C(C)N2CCc3nc(C(=O)NO)sc3C2)cn1 (centres undefined)
1.28

Next: `O=C(/C=C/c1ccccc1)NCCCCN1CCc2nc(C(=O)NO)sc2C1`
1.42

Next: COc1ccc(/C=C/C(=O)Nc2ccc(C(C)N3CCc4nc(C(=O)NO)sc4C3)cn2)cc1 (centres undefined)
0.76

Next: `COc1ccc(/C=C/C(=O)NCCCN2CCc3nc(C(=O)NO)sc3C2)cc1`
0.82

Next: `O=C(NCCCN1CCc2nc(C(=O)NO)sc2C1)c1ccc(-c2ccccc2)s1`
0.71

Next: `O=C(NCCCCN1CCc2nc(C(=O)NO)sc2C1)c1ccc(-c2ccccc2)s1`
0.69

Next: `O=C(/C=C/c1ccccc1)NCCCN1CCc2nc(C(=O)NO)sc2C1`
1.13

Next: `CC(C)N(C(=O)/C=C/c1ccccc1)c1cccc(CN2CCc3nc(C(=O)NO)sc3C2)c1`
0.34

---

Molecular target: UniProt:Q9UBN7
Assay: Inhibition of human recombinant His6-tagged and GST-fuses HDAC6 expressed in insect High5 cells using Boc-Lys(eacetyl)- AMC as substrate after 3 hrs by fluorescence assay
pIC50: −log10 of the molar value.
Would you please tag the item criterion met when its pIC50 is 6 or above, and criterion not met when it is below?

Item `C=CCCC(=O)Nc1ccc(C(=O)N2CCc3nc(C(=O)NO)sc3C2)cc1` with pIC50 of 6 or above?
criterion met

Next: COc1ccc(/C=C/C(=O)Nc2ccc(C(C)N3CCc4nc(C(=O)NO)sc4C3)cn2)cc1 (stereo not given)
criterion not met

Next: `O=C(/C=C/c1ccccc1)NCCCN1CCc2nc(C(=O)NO)sc2C1`
criterion not met

Next: `O=C(/C=C/c1ccccc1)NCCCCN1CCc2nc(C(=O)NO)sc2C1`
criterion not met

Next: `COc1ccc(/C=C/C(=O)NCCCN2CCc3nc(C(=O)NO)sc3C2)cc1`
criterion not met

Next: C=CCCC(=O)Nc1ccc(C(C)N2CCc3nc(C(=O)NO)sc3C2)cn1 (stereo not given)
criterion not met

Next: `COc1ccc(/C=C/C(=O)Nc2ccc(C(=O)N3CCc4nc(C(=O)NO)sc4C3)cc2)cc1`
criterion met

Next: `C=CCCC(=O)NCCCCN1CCc2nc(C(=O)NO)sc2C1`
criterion not met

---

Target: Protein deacetylase HDAC6 (Homo sapiens)
Sequence (Q9UBN7 whole entry): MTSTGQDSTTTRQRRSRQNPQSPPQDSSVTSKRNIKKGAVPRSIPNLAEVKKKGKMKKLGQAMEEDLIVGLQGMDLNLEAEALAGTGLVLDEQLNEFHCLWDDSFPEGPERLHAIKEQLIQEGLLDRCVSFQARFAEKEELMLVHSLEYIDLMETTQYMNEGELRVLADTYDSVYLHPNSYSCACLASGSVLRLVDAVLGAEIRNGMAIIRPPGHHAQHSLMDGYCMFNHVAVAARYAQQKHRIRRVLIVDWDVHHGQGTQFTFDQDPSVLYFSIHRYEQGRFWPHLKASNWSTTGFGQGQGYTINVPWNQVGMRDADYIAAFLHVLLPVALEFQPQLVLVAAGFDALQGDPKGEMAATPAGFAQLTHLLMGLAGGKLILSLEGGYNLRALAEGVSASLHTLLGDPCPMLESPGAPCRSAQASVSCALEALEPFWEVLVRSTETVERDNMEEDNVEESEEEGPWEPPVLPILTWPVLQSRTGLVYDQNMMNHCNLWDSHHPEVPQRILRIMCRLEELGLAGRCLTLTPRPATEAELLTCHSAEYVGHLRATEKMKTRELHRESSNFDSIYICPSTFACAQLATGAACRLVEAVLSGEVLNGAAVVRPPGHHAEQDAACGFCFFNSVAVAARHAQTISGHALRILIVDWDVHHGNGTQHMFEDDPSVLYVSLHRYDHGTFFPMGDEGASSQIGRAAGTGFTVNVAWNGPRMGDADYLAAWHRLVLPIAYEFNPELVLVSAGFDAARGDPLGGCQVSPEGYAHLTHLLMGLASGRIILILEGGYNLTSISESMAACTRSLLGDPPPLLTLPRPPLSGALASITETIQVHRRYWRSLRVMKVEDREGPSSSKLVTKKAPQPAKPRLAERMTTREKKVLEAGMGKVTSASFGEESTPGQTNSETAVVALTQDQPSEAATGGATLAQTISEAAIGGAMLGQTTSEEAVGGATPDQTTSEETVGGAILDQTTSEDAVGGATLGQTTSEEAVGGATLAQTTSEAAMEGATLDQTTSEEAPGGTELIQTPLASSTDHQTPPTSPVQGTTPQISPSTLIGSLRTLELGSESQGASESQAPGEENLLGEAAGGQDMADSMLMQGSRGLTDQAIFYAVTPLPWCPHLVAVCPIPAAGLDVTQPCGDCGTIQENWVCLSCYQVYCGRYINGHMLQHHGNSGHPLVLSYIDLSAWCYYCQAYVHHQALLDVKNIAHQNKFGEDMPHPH
Test: Inhibition of human recombinant His6-tagged and GST-fuses HDAC6 expressed in insect High5 cells using Boc-Lys(eacetyl)- AMC as substrate after 3 hrs by fluorescence assay
measuredEndpoint: IC50 (µM)
Respond numerically; units are µM and should not be typed.

Reported IC50, compound CC(c1ccc(NC(=O)c2ccc(-c3ccccc3)s2)nc1)N1CCc2nc(C(=O)NO)sc2C1 (stereo unspecified) : ____
1.33

Next: `O=C(NCCCCN1CCc2nc(C(=O)NO)sc2C1)c1ccc(-c2ccccc2)s1`
2.69

Next: `COc1ccc(/C=C/C(=O)NCCCCN2CCc3nc(C(=O)NO)sc3C2)cc1`
9.55

Next: `O=C(NCCCN1CCc2nc(C(=O)NO)sc2C1)c1ccc(-c2ccccc2)s1`
3.39

Next: `O=C(Nc1ccc(C(=O)N2CCc3nc(C(=O)NO)sc3C2)cc1)c1ccc(-c2ccccc2)s1`
0.12

Next: `C=CCCC(=O)NCCCN1CCc2nc(C(=O)NO)sc2C1`
58.7

---

Please provide measured IC50 for the entries that follow.
Molecular target: UniProt Q13547
Assay: Inhibition of human recombinant His6-tagged and GST-fuses HDAC1 expressed in insect High5 cells using Ac-Lys-Tyr-Lys(e-acetyl)-AMC as substrate after 24 hrs by fluorescence assay
Respond numerically; units are µM and should not be typed.

Reported IC50, compound `O=C(/C=C/c1ccccc1)NCCCCN1CCc2nc(C(=O)NO)sc2C1` : ____
40.1

Next: `COc1ccc(/C=C/C(=O)Nc2ccc(C(=O)N3CCc4nc(C(=O)NO)sc4C3)cc2)cc1`
22.5

Next: `COc1ccc(/C=C/C(=O)NCCCN2CCc3nc(C(=O)NO)sc3C2)cc1`
10.3

Next: `O=C(/C=C/c1ccccc1)NCCCN1CCc2nc(C(=O)NO)sc2C1`
39.4

Next: CC(c1ccc(NC(=O)/C=C/c2ccccc2)nc1)N1CCc2nc(C(=O)NO)sc2C1 (stereo not given)
6.8

---

Molecular target: Histone deacetylase 1 (Homo sapiens, UniProt Q13547)
Sequence (Q13547 whole entry): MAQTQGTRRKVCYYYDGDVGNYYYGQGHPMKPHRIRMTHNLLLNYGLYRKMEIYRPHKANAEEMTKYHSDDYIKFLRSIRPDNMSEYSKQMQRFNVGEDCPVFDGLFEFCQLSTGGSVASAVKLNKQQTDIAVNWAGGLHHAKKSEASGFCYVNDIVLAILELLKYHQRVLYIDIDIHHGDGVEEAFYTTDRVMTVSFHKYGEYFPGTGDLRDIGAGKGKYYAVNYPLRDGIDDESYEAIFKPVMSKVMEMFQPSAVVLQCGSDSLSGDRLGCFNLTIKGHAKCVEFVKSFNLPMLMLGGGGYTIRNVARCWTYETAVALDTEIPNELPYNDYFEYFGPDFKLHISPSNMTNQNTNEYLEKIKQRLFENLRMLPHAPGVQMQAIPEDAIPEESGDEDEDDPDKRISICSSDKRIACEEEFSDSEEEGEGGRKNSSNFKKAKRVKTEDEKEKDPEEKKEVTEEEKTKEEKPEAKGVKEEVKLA
Assay: Inhibition of human recombinant His6-tagged and GST-fuses HDAC1 expressed in insect High5 cells using Ac-Lys-Tyr-Lys(e-acetyl)-AMC as substrate after 24 hrs by fluorescence assay
measuredEndpoint: IC50 (µM)
Respond numerically; units are µM and should not be typed.

Reported IC50, compound COc1ccc(/C=C/C(=O)Nc2ccc(C(C)N3CCc4nc(C(=O)NO)sc4C3)cn2)cc1 (centres undefined) : ____
6.8

Next: `O=C(NCCCN1CCc2nc(C(=O)NO)sc2C1)c1ccc(-c2ccccc2)s1`
5.67

Next: CC(c1ccc(NC(=O)c2ccc(-c3ccccc3)s2)nc1)N1CCc2nc(C(=O)NO)sc2C1 (centres undefined)
2.96

Next: `O=C(Nc1ccc(C(=O)N2CCc3nc(C(=O)NO)sc3C2)cc1)c1ccc(-c2ccccc2)s1`
2.59

Next: `CC(C)N(C(=O)/C=C/c1ccccc1)c1cccc(CN2CCc3nc(C(=O)NO)sc3C2)c1`
11.5

Next: `O=C(NCCCCN1CCc2nc(C(=O)NO)sc2C1)c1ccc(-c2ccccc2)s1`
6.08

Next: C=CCCC(=O)Nc1ccc(C(C)N2CCc3nc(C(=O)NO)sc3C2)cn1 (centres undefined)
65.7

Next: `COc1ccc(/C=C/C(=O)NCCCCN2CCc3nc(C(=O)NO)sc3C2)cc1`
35.1

Next: `C=CCCC(=O)Nc1ccc(C(=O)N2CCc3nc(C(=O)NO)sc3C2)cc1`
9.7

All values here come from ChEMBL document CHEMBL2046379.
